test: Electrochemical activity: polarographic reduction on mercury dripping electrode; type: physicochemical; conditions: pH 7.0; 2.0% sodium chloride background, 37° C., 9·10^−4 M, forward trace; average for the group of compounds
observation type: i (mkA)
Write the value in mkA as a bare number.

# annotated cases, reported i shown
Nc1cccc2c(=O)n([C@@H]3O[C@H](CO)[C@@H](O)[C@H]3O)[nH]c(=O)c12.[Na] | 0.23
O=c1[nH][nH]c(=O)c2nccnc12.[Li] | 0.32
O=c1[nH][nH]c(=O)c2ncccc12.[Na] | 0.26
Nc1ncc2c(=O)[nH][nH]c(=O)c2n1 | 0.30

Task item: For the molecule `O=c1[nH]n([C@@H]2O[C@H](CO)[C@@H](O)[C@H]2O)c(=O)c2ncccc12.[Na]` , what i is on record?
Reply: 0.26

====

test: Chronic toxicity of suppositories: indexes of peripheral blood; assay type: in vivo, rats; conditions: male rats, suppositories rectally, 500 mg/kg, 2 months; control 6.1 ± 0.1
observation type: Erythrocytes (mln/mm^3)
Lab book: enter the figure in mln/mm^3, no units written.

Nc1cccc2c(=O)[nH][nH]c(=O)c12.[Na] | 6.7
O=c1[nH]n([C@@H]2O[C@H](CO)[C@@H](O)[C@H]2O)c(=O)c2nc(O)cnc12.[Na].[Na] | 6.4
O=C([O-])c1ncnc2c(=O)n([C@@H]3O[C@H](CO)[C@@H](O)[C@H]3O)[nH]c(=O)c12.[Na+] | 6.6

Now for the compound whose Erythrocytes we want.
Task item: Quick one: Erythrocytes of `O=c1[nH][nH]c(=O)c2c(Br)ncnc12.[K]` ?
Reply: 6.5

====

Some compounds, each annotated with its measured prothrombin time, T.
test system: plasma hemostasis; assay: Prothrombin time after intravenous administration; type: in vivo, rabbit; details: 30.0 mg/kg intravenously, after 120 minutes; control 11.2 ± 0.1
Description: […]
Report the figure in s without appending any unit label.

The examples below pair each entry with its known result.
Nc1cccc2c(=O)[nH][nH]c(=O)c12.[Na] | 11.3
O=c1[nH][nH]c(=O)c2c(Br)ncnc12.[K] | 11.1
Nc1cnc2c(=O)n([C@@H]3O[C@H](CO)[C@@H](O)[C@H]3O)[nH]c(=O)c2n1.[Na] | 11.2

Now take the following compound into account.
Task item: GET /values?readout=prothrombin time, T&item= `Nc1ccnc2c(=O)n([C@@H]3O[C@H](CO)[C@@H](O)[C@H]3O)[nH]c(=O)c12`
Reply: 11.2

====

test: Electrochemical activity: polarographic reduction on mercury dripping electrode; type: physicochemical; conditions: calculated with Geirovsky-Ilkovich equation
observation type: number of electrons participating in the reduction reaction
Lab note: record just the number, no unit beside it.

O=c1[nH]n([C@@H]2O[C@H](CO)[C@@H](O)[C@H]2O)c(=O)c2ncnc(O)c12.[Na] [Compound 33] | 3.5

Task item: Which number of electrons participating in the reduction reaction is listed for O=c1[nH][nH]c(=O)c2ncncc12.[Li] [Compound 35] ?
Reply: 3.5

Task item: So what does the record say about number of electrons participating in the reduction reaction for O=C([O-])c1ccc2c(=O)[nH][nH]c(=O)c2c1.O=C([O-])c1ccc2c(=O)[nH][nH]c(=O)c2c1.[Na+].[Na+] [Compound 18] ?
Reply: 4.09

Task item: What measured number of electrons participating in the reduction reaction goes with Nc1ncc2c(=O)[nH][nH]c(=O)c2n1 [Compound 36] ?
Reply: 3.5

Task item: Look up number of electrons participating in the reduction reaction for this molecule: O=c1[nH]n([C@@H]2O[C@H](CO)[C@@H](O)[C@H]2O)c(=O)c2ncccc12.[Na] [Compound 1]
Reply: 3.72

Task item: For the molecule shown here, O=c1[nH][nH]c(=O)c2ncccc12.[Na] [Compound 7] , give the reported number of electrons participating in the reduction reaction.
Reply: 3.72

====

assay: Electrochemical activity: polarographic reduction on mercury dripping electrode; assay type: physicochemical; conditions: polarograms of reverse stroke
observation type: half-wave potential more positive at reverse stroke compared to forward stroke

O=c1[nH]n([C@@H]2O[C@H](CO)[C@@H](O)[C@H]2O)c(=O)c2ncccc12.[Na] | 25.0 mV
O=c1[nH][nH]c(=O)c2ncncc12.[Li] | 27.0 mV
O=c1[nH]n([C@@H]2O[C@H](CO)[C@@H](O)[C@H]2O)c(=O)c2ncnc(O)c12.[Na] | 27.0 mV
O=c1[nH][nH]c(=O)c2ncccc12.[Na] | 25.0 mV
Nc1cccc2c(=O)n([C@@H]3O[C@H](CO)[C@@H](O)[C@H]3O)[nH]c(=O)c12.[Na] | 30.0 mV
O=c1[nH]n([C@@H]2O[C@H](CO)[C@@H](O)[C@H]2O)c(=O)c2nc(O)cnc12.[Na].[Na] | 20.0 mV

Here is another compound to look at.
Task item: # get_value(readout='half-wave potential more positive at reverse stroke compared to forward stroke', item= `Nc1cccc2c(=O)[nH][nH]c(=O)c12.[Na]` )
Reply: 30.0 mV

====

experiment: Chronic toxicity of suppositories: indexes of peripheral blood; assay type: in vivo, rats; conditions: male rats, suppositories rectally, 50 mg/kg, 2 months; control 74.6 + 1.9
observation type: Average volume of erythrocytes (Mkm^3)
Could you give me the number in Mkm^3? Just the number is fine.

O=C([O-])c1ncnc2c(=O)n([C@@H]3O[C@H](CO)[C@@H](O)[C@H]3O)[nH]c(=O)c12.[Na+] | 76.7
Nc1cccc2c(=O)[nH][nH]c(=O)c12.[Na] | 78.6
O=c1[nH]n([C@@H]2O[C@H](CO)[C@@H](O)[C@H]2O)c(=O)c2nc(O)cnc12.[Na].[Na] | 77.5

Task item: Consider the compound `O=c1[nH][nH]c(=O)c2c(Br)ncnc12.[K]` and give its measured Average volume of erythrocytes.
Reply: 78.5

====

Here the recorded thrombin time, T2 is given for each entry.
Test system: plasma hemostasis
Assay: Thrombin time after intravenous administration
Format: in vivo, rabbit
Settings: 60.0 mg/kg intravenously, after 60 minutes; control 15.2
Description: The investigations were performed on 72 rabbits of the “Chinchilla” breed with a mass of 2.5±0.3 kg, who were administered which solutions of compounds 2, 15, 21, 37 in doses of 15, 30 and 60 mg/kg intravenously. […] The “thrombin time” characterizes the rate of transformation of fibrinogen into fibrin. It was determined by measuring the coagulation time of plasma deprived of thrombocytes under the effect of thrombin standardized by the control plasma. […]
Marks after values point to notes of the source that are not given here.

Some molecules with known thrombin time, T2 results, for comparison:
Nc1cccc2c(=O)[nH][nH]c(=O)c12.[Na] [Compound 15] | 16.5* s
Nc1ccnc2c(=O)n([C@@H]3O[C@H](CO)[C@@H](O)[C@H]3O)[nH]c(=O)c12 [Compound 2] | 15.9* s

Task item: Could you tell me which thrombin time, T2 is on file for O=c1[nH][nH]c(=O)c2c(Br)ncnc12.[K] [Compound 37] ?
Reply: 16.2* s

Task item: Look up thrombin time, T2: Nc1cnc2c(=O)n([C@@H]3O[C@H](CO)[C@@H](O)[C@H]3O)[nH]c(=O)c2n1.[Na] [Compound 21]
Reply: 16.3* s

====

assay: Electrochemical activity: polarographic reduction on mercury dripping electrode; type: physicochemical; conditions: pH 7.4; vs SCE, 37° C., forward trace; average for the group of compounds
−E1/2 below 0.09 V gives not fulfilled; −E1/2 at or above it gives fulfilled.

Previously resolved entries follow.
O=c1[nH][nH]c(=O)c2ncccc12.[Na] | fulfilled
COP(=O)(OC)C(C)(C)CC(C)=O [Dimesphosphon, reference compound] | fulfilled
O=c1[nH][nH]c(=O)c2ncncc12.[Li] | not fulfilled
O=c1[nH]n([C@@H]2O[C@H](CO)[C@@H](O)[C@H]2O)c(=O)c2ncnc(O)c12.[Na] | not fulfilled
Nc1ncc2c(=O)[nH][nH]c(=O)c2n1 | not fulfilled

Task item: Could you verify whether the entry `O=c1[nH]n([C@@H]2O[C@H](CO)[C@@H](O)[C@H]2O)c(=O)c2nc(O)cnc12.[Na].[Na]` shows −E1/2 of no less than 0.09 V?
Reply: fulfilled

Task item: Confirm if −E1/2 reported for the compound `O=c1[nH]n([C@@H]2O[C@H](CO)[C@@H](O)[C@H]2O)c(=O)c2ncccc12.[Na]` is 0.09 V or above.
Reply: fulfilled

Task item: Reported −E1/2 reaches at least 0.09 V for `O=c1[nH][nH]c(=O)c2nccnc12.[Li]` ?
Reply: fulfilled

====

assay: Morphine abstinence model: thymus condition (mass, nitrites); format: in vivo, rats; conditions: Administration of morphine and compound; control 230 ± 14
observation type: Thymus mass (mg)
Number only, in mg; omit the unit.

Example entries and their recorded answers appear below.
O=c1[nH][nH]c(=O)c2c(Br)ncnc12.[K] | 228
O=c1[nH][nH]c(=O)c2nccnc12.[Li] | 218
O=c1[nH][nH]c(=O)c2ncccc12.[Li] | 207

Task item: If you can, please state the reported Thymus mass value of `Nc1cccc2c(=O)[nH][nH]c(=O)c12.[Na]` .
Reply: 214
